These measurements were taken from patent US20210095028A1.

Reported Bottom (best-fit) is given for each of the following binders.
# system: T1, cynomolgus TIGIT over-expressed on CHO-K1 cells (cynomolgus, UniProt A0A7N9I9V4 89-312)
# T1 construct: whole, on cells; also called CHO-K1/cynomolgus TIGIT cells
# T1 sequence (A0A7N9I9V4 entry or part of it): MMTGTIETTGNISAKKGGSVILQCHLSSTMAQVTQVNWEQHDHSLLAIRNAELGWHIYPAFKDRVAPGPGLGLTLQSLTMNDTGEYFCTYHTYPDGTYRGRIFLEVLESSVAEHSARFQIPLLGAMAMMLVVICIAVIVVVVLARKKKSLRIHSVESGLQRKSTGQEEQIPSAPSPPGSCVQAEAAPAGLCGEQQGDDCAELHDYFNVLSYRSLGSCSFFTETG
# assay protocol: FACS, CHO-K1 cells over-expressing cynomolgus TIGIT

{"binder": "121C2F10B5 (antibody, V domains shown, Mouse monoclonal antibody; also called mouse anti-human TIGIT monoclonal antibody 121C2F10B5) VH: EVQLVESGGDLVKPGGSLKLSCAASGFTFSTYGMSWVRQTPDKRLEWVATISSGGSYTYYPDSVKGRFTISRDNAKNTLYLQMSSLKSEDTAMYYCARQVHYFYAMDYWGQGTSVTVSS VL: DIQMTQSPASLSVSVGETVTITCRASENIYSNLAWYQQKQGKSPQVLVYAATNLADGVPSRFSGSRSGTQYSLKINSLQSEDFGSYYCQHFWDNAYTFGGGTKLEIK", "Bottom (best-fit)": 7.6}
{"binder": "100C4E7D11 (antibody, V domains shown, Mouse monoclonal antibody; also called mouse anti-human TIGIT monoclonal antibody 100C4E7D11) VH: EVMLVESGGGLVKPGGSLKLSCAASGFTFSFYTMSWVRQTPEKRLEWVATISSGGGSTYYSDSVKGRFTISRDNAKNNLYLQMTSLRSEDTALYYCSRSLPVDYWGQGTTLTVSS VL: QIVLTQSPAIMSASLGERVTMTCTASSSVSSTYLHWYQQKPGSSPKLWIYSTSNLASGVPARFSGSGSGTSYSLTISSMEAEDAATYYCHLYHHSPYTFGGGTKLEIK", "Bottom (best-fit)": 16.9}
{"binder": "139E2C2D2 (antibody, V domains shown, Mouse monoclonal antibody; also called mouse anti-human TIGIT monoclonal antibody 139E2C2D2) VH: EVQLVESGGDLVKPGGSLKLSCAASGFTFSSYGMSWVRQTPDKRLEWVAIISSGGNYTYYPDSVKGRFTISRDNAKNTLYLQMSSLKSEDTAMYYCARQIHYFFAMDYWGQGTSVTVSS VL: DIQMTQSPASLSVSVGETVTITCRASENIYSNLAWYQQKQGKSPQLLVYAATNLADGAPSRFSGSRSGTQYSLKINSLQSEDFGSYYCQHFWGTAYTFGGGTKLEIK", "Bottom (best-fit)": 7.6}
